test target: Luciferin 4-monooxygenase (Photinus pyralis)
assay overview: qHTS profiling assay for firefly luciferase inhibitor/activator using purifed enzyme and Km concentrations of substrates (counterscreen for miR-21 project); also: nearly all actives have a fitted effect of over 55% in size
conditions used: purified FLuc, luminescence inhibition; series mostly up to 57.5 µM
Screen size: about 360,000 compounds; about 25,000 (6.9%) were called active. Roughly 9% stayed inconclusive and do not appear here. Calls follow the shape of the dose curve; as a rule, active = well fitted inhibition curve with a large enough effect; inconclusive = small, poorly fitted or top-dose-only effect; inactive = flat fitted curve, though single readings scatter. Only a selection was taken, and actives are over-represented in it overall.
Result category, one only: TRUE for active, FALSE for inactive

>>> group("CCN(CC)CCn1c(/N=C/c2cc(Br)ccc2O)nc2ccccc21")
"FALSE"

Assay outcome for COc1cccc(CNC(=O)c2n[nH]c3ccccc23)c1 : what was it? TRUE

Assay outcome for Cc1nc(Nc2ccccc2F)c2nnn(Cc3ccccc3Cl)c2n1 : what was it? FALSE

Assay outcome for Oc1ccc(Br)cc1/C=N/Nc1ccccn1 : what was it? TRUE

Assay outcome for O=C(COC(=O)c1n[nH]c2ccccc12)NCc1ccccc1 : what was it? FALSE

Assay outcome for Cc1sc2ncn(CC(=O)N3CCN(c4ccc(F)cc4)CC3)c(=O)c2c1S(=O)(=O)N1CCN(c2ncccn2)CC1 : what was it? FALSE

Assay outcome for O=C(NCCc1csc(-c2ccccc2)n1)c1ccccc1F : what was it? TRUE

====

test target: Luciferin 4-monooxygenase (Photinus pyralis)
assay overview: qHTS profiling assay for firefly luciferase inhibitor/activator using purifed enzyme and Km concentrations of substrates (counterscreen for miR-21 project); also: nearly all actives have a fitted effect of over 55% in size
conditions used: purified FLuc, luminescence inhibition; series mostly up to 57.5 µM
The campaign covered roughly 360,000 compounds. About 25,000 (6.9%) were called active. Another 9% or so got no clear call; they are omitted. Calls come from the whole dose curve; as a rule, active = well fitted inhibition curve with a large enough effect; inconclusive = small, poorly fitted or top-dose-only effect; inactive = flat fitted curve, though single readings scatter. Shown is part of a subset that was picked to be rich in actives.
Result category, one only: active, inactive

These recorded examples may help you get a feel for the data.
>>> group("Cc1ccc(Sc2cc(C(=O)c3ccccc3C(=O)O)ccc2[N+](=O)[O-])cc1")
"inactive"
>>> group("CN(C)CCN=c1cc(-c2ccccc2)oc2ccc(Cl)cc12")
"active"

Assay outcome for CCOc1ccc(CNCc2c(C(=O)O)c(C)n(Cc3cccc(OC)c3)c2C)cc1OC : what was it? inactive

Assay outcome for CCNC(=O)CC1C(=O)N(c2ccc(F)cc2)C(=O)N1Cc1ccc(C)cc1 (stereo unspecified) : what was it? inactive

Assay outcome for NC(=O)NCCCC(=O)O : what was it? inactive

Assay outcome for Nc1[nH]c(=S)nc2nc(-c3ccccc3)c(-c3ccccc3)nc12 : what was it? inactive

====

test target: Luciferin 4-monooxygenase (Photinus pyralis) (UniProt P08659)
Sequence (P08659 whole entry, looked up): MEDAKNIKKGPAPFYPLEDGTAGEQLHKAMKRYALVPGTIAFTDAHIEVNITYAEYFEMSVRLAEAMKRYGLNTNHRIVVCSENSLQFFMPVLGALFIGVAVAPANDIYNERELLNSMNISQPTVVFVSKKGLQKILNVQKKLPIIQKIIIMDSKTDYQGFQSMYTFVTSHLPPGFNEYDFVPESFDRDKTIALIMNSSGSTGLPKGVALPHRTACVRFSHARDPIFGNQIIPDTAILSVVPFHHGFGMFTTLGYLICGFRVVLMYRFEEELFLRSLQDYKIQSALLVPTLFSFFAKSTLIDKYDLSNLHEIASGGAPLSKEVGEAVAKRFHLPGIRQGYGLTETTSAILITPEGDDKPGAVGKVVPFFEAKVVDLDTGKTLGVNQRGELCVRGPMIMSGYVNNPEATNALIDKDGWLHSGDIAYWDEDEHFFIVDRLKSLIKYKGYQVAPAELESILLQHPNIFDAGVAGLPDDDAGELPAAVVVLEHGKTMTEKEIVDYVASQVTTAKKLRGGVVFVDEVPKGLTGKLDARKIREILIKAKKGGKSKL
assay overview: qHTS profiling assay for firefly luciferase inhibitor/activator using purifed enzyme and Km concentrations of substrates (counterscreen for miR-21 project); also: nearly all actives have a fitted effect of over 55% in size
conditions used: purified FLuc, luminescence inhibition; series mostly up to 57.5 µM
The whole screen tested about 360,000 compounds, of which about 25,000 (6.9%) were called active. About 9% were inconclusive and are not listed. Calls come from the whole dose curve; as a rule, active = well fitted inhibition curve with a large enough effect; inconclusive = small, poorly fitted or top-dose-only effect; inactive = flat fitted curve, though single readings scatter. What follows is part of a selection rich in actives, with near analogues and random picks from the rest.
Result category, one only: label 1 for active, label 0 for inactive

>>> group("Fc1ccc(/C=N/Nc2nc(-c3cccnc3)nc3ccccc23)cc1")
"label 1"
>>> group("CCN(CC)S(=O)(=O)c1ccc2c(c1)nc(CN(C)C(=O)Nc1ccc(Cl)cc1)n2C")
"label 0"
>>> group("Cc1nnc(SCc2cc(=O)c3cc(F)ccc3[nH]2)n1C")
"label 0"
>>> group("COc1ccc(-c2cc(NCc3ccc(F)cc3)n3cnnc3n2)cc1")
"label 0"
>>> group("CC(C)NC(=O)NCCCCCCS(C)=O (stereo unspecified)")
"label 0"

Assay outcome for COc1ccc(-c2cn3c(n2)sc2cc(C(=O)Nc4ccc(F)cc4)ccc23)cc1 : what was it? label 0

Assay outcome for COc1cc(OC)cc(-c2nc(=S)n3ccsc3n2)c1 : what was it? label 0

====

test target: Luciferin 4-monooxygenase (Photinus pyralis) (UniProt P08659)
assay overview: qHTS profiling assay for firefly luciferase inhibitor/activator using purifed enzyme and Km concentrations of substrates (counterscreen for miR-21 project); also: nearly all actives have a fitted effect of over 55% in size
conditions used: purified FLuc, luminescence inhibition; series mostly up to 57.5 µM
Among all 360,000 compounds or so, about 25,000 (6.9%) were called active. Another 9% or so got no clear call; they are omitted. The call rests on the fitted dose curve; in most records, active means well fitted inhibition curve with a large enough effect; inconclusive means small, poorly fitted or top-dose-only effect; inactive means flat fitted curve, though single readings scatter. Only a selection was taken, and actives are over-represented in it overall.
Result category, one only: active, inactive

>>> group("Cc1ccc(-n2nc(N)c3c(=O)oc(N(C)C)nc32)cc1")
"inactive"
>>> group("CNc1nc2c(C)cccn2c(=O)c1C=Nc1ccc(OC)cc1")
"active"
>>> group("CC(=O)c1ccc(NC(=O)c2nc(-c3ccc(C)cc3)n3c2CCCCC3)cc1")
"inactive"
>>> group("CCCCCn1c(=O)[nH]c2cc(C(=O)NCCCN3CCCCC3C)ccc2c1=O (configuration not stated)")
"inactive"
>>> group("Cc1ccc(CNS(=O)(=O)CCNC(=O)c2ccccc2)cc1")
"inactive"

Assay outcome for COC(=O)c1ccccc1NC(=O)c1ccc(COc2ccccc2Cl)o1 : what was it? inactive

Assay outcome for CC(CNC(=O)c1nnc(Cc2cccc(F)c2)o1)c1ccccc1 (configuration not stated) : what was it? inactive

Assay outcome for Cc1cccn2c(=O)c(/C=C3\SC(=S)N(CC(C)C)C3=O)c(NCCCOC(C)C)nc12 : what was it? inactive

Assay outcome for Cc1ccccc1-c1nc(SCC(=O)N(C)c2ccccc2)c2c(=O)n(C)c(=O)n(C)c2n1 : what was it? inactive

Assay outcome for Cn1c(=O)c2sccc2n2c(CCC(=O)NCc3ccccc3Cl)nnc12 : what was it? inactive

Assay outcome for COc1ccc(OCc2cc(C(=O)NCC3(C)COC3)no2)c(Cl)c1 : what was it? active

Assay outcome for COc1ccc(C(=O)CSc2nnc(NC(=O)C3CC(=O)N(c4cccc(OC)c4)C3)s2)cc1 (configuration not stated) : what was it? inactive

Assay outcome for CCCCN(C)CCCNC(=O)CN1N=C(c2ccc(OC)cc2)CCC1=O : what was it? inactive

Assay outcome for Cc1cccn2c(=O)c(C=O)c(Nc3ccc(S(N)(=O)=O)cc3)nc12 : what was it? inactive

Assay outcome for CC(=O)c1ccc(S(=O)(=O)NCCC(=O)N2CCN(c3ccccn3)CC2)cc1 : what was it? inactive

Assay outcome for COc1cccc(Nc2nnc(SCC(=O)N3CC(C)OC(C)C3)s2)c1 (configuration not stated) : what was it? active

Assay outcome for CCCc1ccc(C(=O)COC(=O)CN2C(=O)NC3(CCCCC3C)C2=O)cc1 (configuration not stated) : what was it? active

Assay outcome for COc1ccc(CCNC(=O)c2ccc3c(c2)nc(C)n3-c2ccc(Br)cc2)cc1OC : what was it? inactive

Assay outcome for O=C(CSCc1ccc(Cl)cc1)N1CCN(Cc2ccc3c(c2)OCO3)CC1 : what was it? inactive

Assay outcome for COc1ccc(CCNC(=O)c2cnc(Cl)c(Cl)c2)cc1 : what was it? inactive

Assay outcome for COc1cccc(CNC(=O)COC(=O)CN2C(=O)NC3(CCCCC3C)C2=O)c1 (configuration not stated) : what was it? inactive

Assay outcome for COc1cccc(Nc2nnc(SCC(=O)N3CC(=O)Nc4ccccc43)s2)c1 : what was it? active

====

test target: Luciferin 4-monooxygenase (Photinus pyralis) (UniProt P08659)
assay overview: qHTS profiling assay for firefly luciferase inhibitor/activator using purifed enzyme and Km concentrations of substrates (counterscreen for miR-21 project); also: nearly all actives have a fitted effect of over 55% in size
conditions used: purified FLuc, luminescence inhibition; series mostly up to 57.5 µM
Screen size: about 360,000 compounds; about 25,000 (6.9%) were called active. Another 9% or so got no clear call; they are omitted. Calls follow the shape of the dose curve; as a rule, active = well fitted inhibition curve with a large enough effect; inconclusive = small, poorly fitted or top-dose-only effect; inactive = flat fitted curve, though single readings scatter. The sample holds actives, similar compounds and a random draw of the others, so the mix is not that of the screen.
Result category, one only: active, inactive

Assay outcome for COc1ccccc1CNC(=O)COC(=O)CNS(=O)(=O)c1ccc(NC(C)=O)cc1 : what was it? inactive

Assay outcome for CC1=NN(Cc2ccccc2)C(=O)/C1=C/c1ccc(N(C)C)cc1 : what was it? active

Assay outcome for COc1ccc(/C=C(/NC(=O)c2ccco2)C(=O)Nc2ccc(C(C)=O)cc2)cc1 : what was it? inactive

Assay outcome for CSc1c(SCc2ccccc2)cnn(Cc2ccccc2)c1=O : what was it? inactive

Assay outcome for C=CCNC(=O)c1ccccc1NC(=O)c1ccc(Cl)c(S(=O)(=O)Nc2cccc(C)c2C)c1 : what was it? inactive

====

test target: Luciferin 4-monooxygenase (Photinus pyralis) (UniProt P08659)
assay overview: qHTS profiling assay for firefly luciferase inhibitor/activator using purifed enzyme and Km concentrations of substrates (counterscreen for miR-21 project); also: nearly all actives have a fitted effect of over 55% in size
conditions used: purified FLuc, luminescence inhibition; series mostly up to 57.5 µM
Out of some 360,000 compounds screened, about 25,000 (6.9%) were called active. Not shown: some 9% with an inconclusive outcome. The call rests on the fitted dose curve; in most records, active means well fitted inhibition curve with a large enough effect; inconclusive means small, poorly fitted or top-dose-only effect; inactive means flat fitted curve, though single readings scatter. What follows is part of a selection rich in actives, with near analogues and random picks from the rest.
Result category, one only: active, inactive

These recorded examples may help you get a feel for the data.
>>> group("O=C(NCc1ccc2c(c1)OCO2)c1ccc(Cl)s1")
"inactive"
>>> group("COc1ccccc1C(=O)NCCC(=O)NC1=NCCS1")
"inactive"
>>> group("O=C(NC1=NCCS1)c1ccc(Cl)s1")
"active"
>>> group("Cc1ccc(-n2ncc(C(=O)N(C)Cc3ccccc3)c2-n2cccc2)cc1")
"inactive"
>>> group("Cc1cc(C(=O)O)ccc1[N+](=O)[O-]")
"inactive"
>>> group("O=C(NC1=NCCS1)[C@H](Cc1ccccc1)N1C(=O)c2ccccc2C1=O")
"inactive"
>>> group("CN1CCC(N(C)S(=O)(=O)c2ccc(NC(=O)c3cccc(C#N)c3)cc2)CC1")
"inactive"
>>> group("COc1ccc(C(=O)Nc2nncs2)c(OC)c1")
"active"

Assay outcome for COCCn1c(SCC(=O)c2cc(C)ccc2C)nc2cc(C(=O)NC3CCCC3)ccc2c1=O : what was it? inactive

Assay outcome for CC(=O)c1ccc2c(c1)OCCOCCOc1ccc(C(C)=O)cc1OCCOCCO2 : what was it? inactive

Assay outcome for CCOc1ccc(C(=O)CCC(=O)NC2=NCCS2)cc1 : what was it? inactive

Assay outcome for COc1cccc(OC)c1C(=O)Nc1nnc(C(C)C)s1 : what was it? inactive

Origin of the recorded values: PubChem BioAssay AID588342
